B1: TOR1AIP2 (parent)
chain: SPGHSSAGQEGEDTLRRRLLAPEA

Variants of: B1
Experiment: protein stability index of a GFP-peptide fusion (GPS, HEK-293T) (PSI 1-6); higher = more stable;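 further: lentivirally expressed fusions sorted by FACS into six bins by GFP to DsRed ratio, PSI derived from sequencing read proportions per bin multiplied by bin number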
Details: c terminus: a fixed tail appended
Classification field: enter true (1) for protein stability index values not below 5, false (0) for values below it.

Query: Is the recorded value of protein stability index equal to or greater than 5 for this variant? L15E
Response: true (1)

Query: Is the recorded value of protein stability index equal to or greater than 5 for this variant? S5A
Response: false (0)

Query: Is the recorded value of protein stability index equal to or greater than 5 for this variant? H4T
Response: false (0)

Query: Is the recorded value of protein stability index equal to or greater than 5 for this variant? R16D
Response: true (1)

Query: Is the recorded value of protein stability index equal to or greater than 5 for this variant? S5Y
Response: false (0)

Query: Is the recorded value of protein stability index equal to or greater than 5 for this variant? L20K
Response: true (1)

Query: Is the recorded value of protein stability index equal to or greater than 5 for this variant? E10F
Response: false (0)

Query: Is the recorded value of protein stability index equal to or greater than 5 for this variant? P22D
Response: true (1)

Query: Is the recorded value of protein stability index equal to or greater than 5 for this variant? G11N
Response: false (0)

Query: Is the recorded value of protein stability index equal to or greater than 5 for this variant? A7H
Response: false (0)

Query: Is the recorded value of protein stability index equal to or greater than 5 for this variant? R17D
Response: true (1)

Query: Is the recorded value of protein stability index equal to or greater than 5 for this variant? A21L
Response: false (0)

Query: Is the recorded value of protein stability index equal to or greater than 5 for this variant? L19I
Response: false (0)

Query: Is the recorded value of protein stability index equal to or greater than 5 for this variant? E10A
Response: false (0)

Query: Is the recorded value of protein stability index equal to or greater than 5 for this variant? A24T
Response: false (0)

Query: Is the recorded value of protein stability index equal to or greater than 5 for this variant? P22V
Response: false (0)

Query: Is the recorded value of protein stability index equal to or greater than 5 for this variant? A7I
Response: false (0)

Query: Is the recorded value of protein stability index equal to or greater than 5 for this variant? P22T
Response: false (0)

Query: Is the recorded value of protein stability index equal to or greater than 5 for this variant? R18T
Response: false (0)
